- Tested on: forty-four human cancer cell lines
- experimental protocol: Cell proliferation assay (ATPlite, 72 hours) in the 44 cell line Oncolines panel
- Type: cell-based
- applied conditions: Homo sapiens, A-375, cell line A375; read-out: cell panel IC50, A375
assay readout: pIC50
Note: pIC50 values are expressed as the negative base-10 logarithm of concentration in M.

Given CCCS(=O)(=O)Nc1ccc(F)c(C(=O)c2c[nH]c3ncc(-c4ccc(Cl)cc4)cc23)c1F , report its pIC50 on forty-four human cancer cell lines.
5.40

Given CC(=O)Nc1cccc(-n2c(=O)n(C3CC3)c(=O)c3c(Nc4ccc(I)cc4F)n(C)c(=O)c(C)c32)c1 , report its pIC50 on forty-four human cancer cell lines.
7.89

Given CNC(=O)c1cc(Oc2ccc(NC(=O)Nc3ccc(Cl)c(C(F)(F)F)c3)c(F)c2)ccn1 , report its pIC50 on forty-four human cancer cell lines.
5.45
